The reported measurements were obtained from patent US20260102487A1.

- Target Under Test: T1, human IL-2Rβγ receptor on primary human T-cells and NK-cells (PBMCs) (human, UniProt P14784 27-551; P31785 23-369)
- T1 construct: Endogenous receptor on primary cells; also called dimeric IL-2Rβγ receptor complex
- T1 sequence 1: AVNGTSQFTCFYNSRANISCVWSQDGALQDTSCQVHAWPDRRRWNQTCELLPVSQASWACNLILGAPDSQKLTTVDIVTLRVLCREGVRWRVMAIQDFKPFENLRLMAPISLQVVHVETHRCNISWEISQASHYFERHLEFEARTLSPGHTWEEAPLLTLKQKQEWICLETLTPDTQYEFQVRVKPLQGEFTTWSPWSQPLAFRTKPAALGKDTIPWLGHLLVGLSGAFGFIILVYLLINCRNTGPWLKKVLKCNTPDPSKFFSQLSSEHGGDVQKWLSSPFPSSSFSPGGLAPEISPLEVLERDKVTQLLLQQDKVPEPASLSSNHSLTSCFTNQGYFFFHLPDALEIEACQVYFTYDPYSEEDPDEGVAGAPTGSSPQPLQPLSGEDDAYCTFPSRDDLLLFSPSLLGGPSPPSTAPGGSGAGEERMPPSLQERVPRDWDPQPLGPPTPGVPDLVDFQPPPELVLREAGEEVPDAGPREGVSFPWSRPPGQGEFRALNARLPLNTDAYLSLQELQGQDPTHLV
- T1 sequence 2: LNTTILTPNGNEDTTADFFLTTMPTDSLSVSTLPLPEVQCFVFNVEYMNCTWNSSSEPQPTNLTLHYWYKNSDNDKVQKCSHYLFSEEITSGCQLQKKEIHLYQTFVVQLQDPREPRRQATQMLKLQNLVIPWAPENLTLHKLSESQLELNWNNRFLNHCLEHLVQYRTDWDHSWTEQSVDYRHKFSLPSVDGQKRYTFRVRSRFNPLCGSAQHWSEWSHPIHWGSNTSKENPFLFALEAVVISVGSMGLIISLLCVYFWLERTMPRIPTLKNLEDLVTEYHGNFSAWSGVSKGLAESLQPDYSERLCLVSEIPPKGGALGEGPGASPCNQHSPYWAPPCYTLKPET
- Assay Remarks: flow cytometry cell binding on human CD4+ T-cells (PBMC), gMFI as fold over secondary antibody only
// values below are reported EC50 (read off the curve)

Which EC50 (read off the curve) reading was recorded for the binder BsAb-6 (IL2RB_F18E**IL2RG_F16A) (bispecific antibody, human IgG4, V domains shown, Heavy chain-only bispecific on silenced, stabilised human IgG4 Fc, knobs-into-holes, no light chains; not shown: C-terminal His-tag on the knob chain) V domain 1: QVQLVESGGGVVQPGRSLRLSCAASGFTFSSYGMHWVRQAPGKEREWVAVISYDGSNKYYTDSVKGRFTISRDNSKNTLYLEMNSLRAEDTAVYYCARDLDYDVLTGDPVGGFDIWGQGTLVTVSS V domain 2: QVQLVESGGGLVKPGGSLRLSCAASGFTFSDYYMSWIRQAPGKGLEWVSSISSSGDTIYYADSVQGRFTLSRDNAENSLFLQMNSLRAEDTAVYYCARGDAVSITGDYRGQGTLVTVSS ?
~7 nM

Lookup BsAb-3 (IL2RB_F09G**IL2RG_F16C) (bispecific antibody, human IgG4, V domains shown, Heavy chain-only bispecific on silenced, stabilised human IgG4 Fc, knobs-into-holes, no light chains; not shown: C-terminal His-tag on the knob chain) V domain 1: QVQLQESGPGLVKSSETLSLTCTVSGGSISSSDWWSWVRQPPGKGLEWIGEIDHSGSTNYNPSLMSRVTISVDKSKNQFSLKLSSVTAADTAVYFCARGSWELTDAFDIRGQGTLVTVSS V domain 2: QVQLVESGGGLVKPGGSLRLSCAASGFTFNDYYMSWIRQAPGKGLEWVSHISSSGSTIYYADSVKGRFTVSRDNANNSLYLQMHSLRAEDTAVYYCARGDAVSITGDYRGQGTLVTVSS
~7 nM

Note, next up: BsAb-2 (IL2RB_F09G**IL2RG_F16B) (bispecific antibody, human IgG4, V domains shown, Heavy chain-only bispecific on silenced, stabilised human IgG4 Fc, knobs-into-holes, no light chains; not shown: C-terminal His-tag on the knob chain) V domain 1: QVQLQESGPGLVKSSETLSLTCTVSGGSISSSDWWSWVRQPPGKGLEWIGEIDHSGSTNYNPSLMSRVTISVDKSKNQFSLKLSSVTAADTAVYFCARGSWELTDAFDIRGQGTLVTVSS V domain 2: QVQLVESGGGLVKPGGSLRLSCAASGFTFSDYYMSWIRQAPGKGLEWVSYISSSGSTIYYADSVKGRFTISRDNAKNSLYLQMNSLRAEDTAVYYCARGDAVSITGDYRGQGTLVTVSS
~4 nM
